Give log10(IC50) for every item shown.
# system-tested: EGFR L858R/T790M/C797S mutant enzyme (Homo sapiens, UniProt P00533, C797S/L858R/T790M)
# Sequence (P00533 25-1210 T790M/C797S/L858R): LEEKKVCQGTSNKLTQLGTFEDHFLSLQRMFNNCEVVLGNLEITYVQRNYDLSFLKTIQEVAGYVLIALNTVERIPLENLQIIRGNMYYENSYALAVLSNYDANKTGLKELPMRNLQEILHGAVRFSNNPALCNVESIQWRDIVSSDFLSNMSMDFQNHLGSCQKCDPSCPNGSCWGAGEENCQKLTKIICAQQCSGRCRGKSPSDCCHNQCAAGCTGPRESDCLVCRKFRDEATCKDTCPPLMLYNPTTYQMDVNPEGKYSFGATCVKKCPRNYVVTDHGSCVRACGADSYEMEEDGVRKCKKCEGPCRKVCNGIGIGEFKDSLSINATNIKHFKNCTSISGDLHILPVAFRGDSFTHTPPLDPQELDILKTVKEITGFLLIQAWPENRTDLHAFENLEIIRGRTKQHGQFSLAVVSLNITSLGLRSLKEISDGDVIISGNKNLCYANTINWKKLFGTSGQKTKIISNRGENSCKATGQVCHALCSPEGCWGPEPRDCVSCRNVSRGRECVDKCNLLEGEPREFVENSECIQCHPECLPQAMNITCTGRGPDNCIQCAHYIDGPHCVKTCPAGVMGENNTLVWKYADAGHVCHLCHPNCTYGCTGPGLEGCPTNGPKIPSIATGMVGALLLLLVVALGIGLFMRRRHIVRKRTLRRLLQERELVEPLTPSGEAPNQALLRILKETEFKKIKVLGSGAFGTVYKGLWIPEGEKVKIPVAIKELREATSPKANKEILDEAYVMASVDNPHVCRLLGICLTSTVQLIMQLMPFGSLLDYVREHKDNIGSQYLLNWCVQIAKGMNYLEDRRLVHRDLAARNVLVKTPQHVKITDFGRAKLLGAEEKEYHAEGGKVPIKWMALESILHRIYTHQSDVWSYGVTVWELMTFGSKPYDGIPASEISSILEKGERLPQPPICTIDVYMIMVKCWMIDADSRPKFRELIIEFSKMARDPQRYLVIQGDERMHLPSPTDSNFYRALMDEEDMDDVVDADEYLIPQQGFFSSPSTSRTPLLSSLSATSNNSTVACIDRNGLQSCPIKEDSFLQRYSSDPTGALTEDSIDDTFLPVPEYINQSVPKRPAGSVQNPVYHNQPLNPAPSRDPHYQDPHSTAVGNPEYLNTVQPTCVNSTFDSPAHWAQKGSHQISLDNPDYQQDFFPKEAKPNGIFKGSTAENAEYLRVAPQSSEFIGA
# test-name: Inhibitory capacity against EGFR L858R/T790M/C797S mutant enzyme (Cisbio HTRF)
# experimental-conditions: HTRF, 1 mM ATP, 37° C. for 2 hours, 7 concentrations
Field: value | Transform: log10 | Quantity: IC50 | Unit: nM

Task: Please look up its log10(IC50): `O=C(N[C@@H](c1cc2ccccc2[nH]1)c1cc(F)ccc1O)c1cccc(-c2ccc(N3CCCC3)cc2)c1`
Result: 3.77

Task: Given `N[C@H]1CCN(c2ccc(-c3cccc(C(=O)N[C@@H](c4cc5ccccc5[nH]4)c4cc(F)ccc4O)c3)cc2)C1` , state its recorded log10(IC50).
Result: 2.26

Task: Quick check: log10(IC50) of `NC1CCN(c2ccc(-c3cccc(C(=O)N[C@@H](c4cc5ccccc5[nH]4)c4cc(Cl)ccc4O)c3)cc2)CC1` ?
Result: 2.81

Task: Bench note: what log10(IC50) did `O=C(N[C@@H](c1cc2ccccc2[nH]1)c1cc(F)ccc1O)c1cccc(-c2ccc(N3CCC(N4CCNCC4)CC3)cc2)c1` show?
Result: 2.28

Task: Which log10(IC50) value is on record for `CC(=O)N1CCN(c2ccc(-c3cccc(C(=O)N[C@@H](c4cc5ccccc5[nH]4)c4cc(F)ccc4O)c3)cc2)CC1` ?
Result: 1.79

Task: Which measured log10(IC50) value corresponds to `N[C@@H]1CCN(c2ccc(-c3cccc(C(=O)N[C@@H](c4cc5ccccc5[nH]4)c4cc(F)ccc4O)c3)cc2)C1` ?
Result: 2.20

Task: Which value of log10(IC50) has been reported for `O=C(N[C@@H](c1cc2ccccc2[nH]1)c1cc(F)ccc1O)c1cccc(-c2ccc(N3CCNCC3)cc2)c1` in the records?
Result: 1.66
